# System Under Test: Full length Human HDAC6 (Homo sapiens, UniProt Q9UBN7)
# Sequence (Q9UBN7 whole entry): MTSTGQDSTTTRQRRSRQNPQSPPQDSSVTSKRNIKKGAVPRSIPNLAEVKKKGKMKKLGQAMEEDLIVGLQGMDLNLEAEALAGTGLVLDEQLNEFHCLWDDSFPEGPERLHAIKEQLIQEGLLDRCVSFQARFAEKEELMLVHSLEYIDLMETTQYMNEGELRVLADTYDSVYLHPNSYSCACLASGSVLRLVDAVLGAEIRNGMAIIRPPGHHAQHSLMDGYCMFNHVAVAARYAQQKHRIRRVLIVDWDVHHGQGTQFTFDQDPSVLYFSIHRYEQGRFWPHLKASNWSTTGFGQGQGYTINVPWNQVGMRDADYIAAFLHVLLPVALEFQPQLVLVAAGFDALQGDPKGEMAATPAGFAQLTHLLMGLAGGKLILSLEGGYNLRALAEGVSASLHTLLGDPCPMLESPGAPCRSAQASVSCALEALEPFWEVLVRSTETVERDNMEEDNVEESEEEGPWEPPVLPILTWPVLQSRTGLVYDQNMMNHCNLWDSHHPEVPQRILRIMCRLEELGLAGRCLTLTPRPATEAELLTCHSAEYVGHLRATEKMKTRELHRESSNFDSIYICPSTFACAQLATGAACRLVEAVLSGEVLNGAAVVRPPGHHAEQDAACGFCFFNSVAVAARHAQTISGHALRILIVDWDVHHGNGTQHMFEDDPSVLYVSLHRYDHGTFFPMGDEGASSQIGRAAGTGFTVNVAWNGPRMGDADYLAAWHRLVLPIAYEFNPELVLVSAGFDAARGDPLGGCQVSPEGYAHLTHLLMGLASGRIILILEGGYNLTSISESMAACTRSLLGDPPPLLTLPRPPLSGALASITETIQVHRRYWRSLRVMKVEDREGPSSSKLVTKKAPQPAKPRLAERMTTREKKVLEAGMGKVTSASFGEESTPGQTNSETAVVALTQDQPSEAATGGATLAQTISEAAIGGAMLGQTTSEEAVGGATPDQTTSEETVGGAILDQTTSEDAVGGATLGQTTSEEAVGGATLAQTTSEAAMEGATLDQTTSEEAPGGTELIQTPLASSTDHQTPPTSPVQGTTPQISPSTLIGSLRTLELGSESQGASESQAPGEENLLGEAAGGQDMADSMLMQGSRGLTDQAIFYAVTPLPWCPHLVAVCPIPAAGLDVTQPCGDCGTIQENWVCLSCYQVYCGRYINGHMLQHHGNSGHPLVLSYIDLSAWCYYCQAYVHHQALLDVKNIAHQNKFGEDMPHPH
Collected IC50 values appear next to each entry.

Solved entries (count: 2):
O=C(NO)c1cc(F)c2c(c1)C[C@H]1CCC3(CCCCC3)CN1C2 (single isomer, unassigned) [compound 138] = 100 to 1000 nM
O=C(NO)c1cc(F)c2c(c1)CCN(C1CCC13CCCCC3)C2 (centres unmarked) [compound 15] = 1 to 100 nM

Request: Can you look up the measured IC50 of O=C(NO)c1cc(F)c2c(c1)CN(CC13C4C5C6C4C1C6C53)CC2 (centres unmarked) [compound 116] for me?
Result: 1 to 100 nM

Request: Next up: O=C(NO)c1ccc(CN2C3CCCC2CCC3)c(F)c1 [compound 60]
Result: 100 to 1000 nM

Request: Subsequent entry: O=C(NO)c1ccc(CN2C[C@@H]3CC[C@H]2CO3)c(F)c1 (single isomer, unassigned) [compound 172]
Result: 1 to 100 nM

Reference source for all entries: patent US12528767B2
